Recorded Plant response rating, Wheat by entry
# Tested on: wheat
# Assay method text: Test B pre/postemergence wheat
# Type: in vivo, Triticum aestivum
# Cond: Postemergence, Rate 500 g/ha; scale 0 to 10, 0 is no effect, 10 is complete control
Form rule: numeric answer, no unit written next to it.

Answer with the recorded Plant response rating, Wheat for the compound listed here: `CC(C)N(C(=O)n1oc(=O)n(CC2CCC2)c1=O)c1ccc(F)cc1F` 2

Answer with the recorded Plant response rating, Wheat for the compound listed here: `C=CCCCn1c(=O)on(C(=O)N(c2ccc(Cl)cc2)C(C)C)c1=O` 0

Answer with the recorded Plant response rating, Wheat for the compound listed here: `CC(C)N(C(=O)n1oc(=O)n(CC(=O)C2CC2)c1=O)c1ccc(F)cc1F` 0

Here is another compound to look at.
Answer with the recorded Plant response rating, Wheat for the compound listed here: `COC(=O)CCCn1c(=O)on(C(=O)N(c2ccc(F)cc2F)C(C)C)c1=O` 6

---

# Tested on: soybean
# Assay method text: Test B pre/postemergence soybean
# Assay type: in vivo, Glycine max
# Cond: Postemergence, Rate 62 g/ha; scale 0 to 10, 0 is no effect, 10 is complete control
Value type: Soybean plant response rating

Answer with the recorded Soybean plant response rating for the compound listed here: `CCCn1c(=O)on(C(=O)N(c2ccc(F)cc2)C(C)C)c1=O` 3

Answer with the recorded Soybean plant response rating for the compound listed here: `CCN(CC)C(=O)n1oc(=O)n(Cc2cccs2)c1=O` 0

Answer with the recorded Soybean plant response rating for the compound listed here: `Cc1cccc(C)c1-n1c(=O)on(C(=O)N(c2ccc(Cl)cc2)C(C)C)c1=O` 2

Answer with the recorded Soybean plant response rating for the compound listed here: `Cc1cccc(C)c1-n1c(=O)on(C(=O)N(c2ccc(F)cc2)C(C)C)c1=O` 2

Answer with the recorded Soybean plant response rating for the compound listed here: `Cc1c(Cl)cccc1-n1c(=O)on(C(=O)N(c2ccc(F)cc2)C(C)C)c1=O` 2

Here is another compound to look at.
Answer with the recorded Soybean plant response rating for the compound listed here: `Cc1ccccc1-n1c(=O)on(C(=O)N(c2ccc(C(F)(F)F)cc2)C(C)C)c1=O` 3

---

# Tested on: morningglory
# Assay method text: Test B pre/postemergence morningglory
# Format: in vivo, Ipomoea hederacea
# Cond: Postemergence, Rate 500 g/ha; scale of 0 to 10 where 0 is no effect and 10 is complete control
Recorded Plant response rating, Morningglory by entry

Past entries and their recorded results:
Answer with the recorded Plant response rating, Morningglory for the molecule listed here: `CC(C)N(C(=O)n1oc(=O)n(CSC#N)c1=O)c1ccc(F)cc1` 0

Answer with the recorded Plant response rating, Morningglory for the molecule listed here: CCC(C)n1c(=O)on(C(=O)N(c2ccccc2)C(C)C)c1=O (stereo not shown) 8

***
Answer with the recorded Plant response rating, Morningglory for the molecule listed here: `C=C(Cn1c(=O)on(C(=O)N(c2ccccc2)C(C)C)c1=O)c1cccc(Cl)n1` 10

Answer with the recorded Plant response rating, Morningglory for the molecule listed here: `CC(C)N(C(=O)n1oc(=O)n(CCCC(F)(F)F)c1=O)c1ccccc1` 10

---

# Tested on: wild oat
# Assay method text: Test B pre/postemergence wild oat
# Type: in vivo, Avena fatua
# Cond: Rate 250 g/ha, Postemergence; scale 0 to 10, 0 is no effect, 10 is complete control
Recorded Plant response rating, Wild oats by entry
Form rule: numeric answer, no unit written next to it.

Answer with the recorded Plant response rating, Wild oats for the molecule listed here: `C=CCn1c(=O)on(C(=O)N(c2ccc(F)cc2F)C(C)C)c1=O` 6

---

# System: bedstraw
# Assay method text: Test B pre/postemergence bedstraw
# Format: in vivo, Galium aparine
# Cond: Rate 125 g/ha, Postemergence; scale 0 to 10
Recorded Bedstraw plant response rating by entry
Form rule: numeric answer, no unit written next to it.

Past entries and their recorded results:
Answer with the recorded Bedstraw plant response rating for the molecule listed here: `CC(C)N(C(=O)n1oc(=O)n(Cc2ccco2)c1=O)c1ccc(F)cc1F` 0

Answer with the recorded Bedstraw plant response rating for the molecule listed here: `CSc1ccc(N(C(=O)n2oc(=O)n(-c3ccccc3C)c2=O)C(C)C)cc1` 0

Here is another molecule to look at.
Answer with the recorded Bedstraw plant response rating for the molecule listed here: `Cc1nc(C)c(Cn2c(=O)on(C(=O)N(c3ccc(F)cc3)C(C)C)c2=O)s1` 0

---

# Tested on: winter wheat
# Assay method text: Test E winter wheat
# Assay type: in vivo, Triticum aestivum
# Cond: Preemergence, Rate 250 g/ha; 0 to 100 scale
Recorded Plant response rating, Wheat (winter) by entry
Form rule: numeric answer, no unit written next to it.

Answer with the recorded Plant response rating, Wheat (winter) for the compound listed here: CC(C)N(C(=O)n1oc(=O)n(C(C)(C)C)c1=O)c1ccc(Cl)cc1 [Compound 118] 50

Answer with the recorded Plant response rating, Wheat (winter) for the compound listed here: CC(C)N(C(=O)n1oc(=O)n(C2CCCCC2)c1=O)c1ccc(F)cc1F [Compound 115] 5

Answer with the recorded Plant response rating, Wheat (winter) for the compound listed here: CC(C)N(C(=O)n1oc(=O)n(C(C)C)c1=O)c1ccc(Cl)cc1 [Compound 114] 0

Answer with the recorded Plant response rating, Wheat (winter) for the compound listed here: CCn1c(=O)on(C(=O)N(c2ccccc2)C(C)C)c1=O [Compound 117] 90

Here is another compound to look at.
Answer with the recorded Plant response rating, Wheat (winter) for the compound listed here: CC(C)N(C(=O)n1oc(=O)n(CCC#N)c1=O)c1ccc(F)cc1 [Compound 388] 50

---

Recorded Giant foxtail plant response rating by entry
# System: giant foxtail
# Assay method text: Test B pre/postemergence giant foxtail
# Assay type: in vivo, Setaria faberii
# Cond: Preemergence, Rate 62 g/ha; scale 0 to 10 (0 no effect, 10 complete control)
Form rule: numeric answer, no unit written next to it.

Past entries and their recorded results:
Answer with the recorded Giant foxtail plant response rating for the compound listed here: `CC(C)N(C(=O)n1oc(=O)n(CC(=O)N(C)C)c1=O)c1ccccc1` 7

Answer with the recorded Giant foxtail plant response rating for the compound listed here: `CCn1c(=O)on(C(=O)N(c2ccccc2)C(C)C)c1=O` 10

Answer with the recorded Giant foxtail plant response rating for the compound listed here: `CC(C)N(C(=O)n1oc(=O)n(C(CF)CF)c1=O)c1ccc(F)cc1F` 10

Answer with the recorded Giant foxtail plant response rating for the compound listed here: `C=C(C)Cn1c(=O)on(C(=O)N(c2ccccc2)C(C)C)c1=O` 9

Answer with the recorded Giant foxtail plant response rating for the compound listed here: `CCCn1c(=O)on(C(=O)N(c2ccc(F)cc2F)C(C)C)c1=O` 7

***
Answer with the recorded Giant foxtail plant response rating for the compound listed here: `CC(C)N(C(=O)n1oc(=O)n(C(C)(C)C)c1=O)c1ccc(Cl)cc1` 9

Answer with the recorded Giant foxtail plant response rating for the compound listed here: `CC(C)N(C(=O)n1oc(=O)n(CCCC(F)(F)F)c1=O)c1ccccc1` 7

---

# Test system: sugar beet
# Assay method text: Test B pre/postemergence sugar beet
# Format: in vivo, Beta vulgaris
# Cond: Postemergence, Rate 250 g/ha; scale 0 to 10, 0 no effect, 10 complete control
Recorded Sugarbeets plant response rating by entry
Form rule: numeric answer, no unit written next to it.

Answer with the recorded Sugarbeets plant response rating for the compound listed here: Cc1cccc(Cl)c1-n1c(=O)on(C(=O)N(c2ccc(F)cc2)C(C)C)c1=O [Compound 53] 1

***
Answer with the recorded Sugarbeets plant response rating for the compound listed here: Cc1cccc(Cl)c1-n1c(=O)on(C(=O)N(c2ccc(Cl)cc2)C(C)C)c1=O [Compound 54] 0

Answer with the recorded Sugarbeets plant response rating for the compound listed here: Cc1cc(C)c(-n2c(=O)on(C(=O)N(c3ccc(F)cc3)C(C)C)c2=O)c(C)c1 [Compound 60] 0

Answer with the recorded Sugarbeets plant response rating for the compound listed here: Cc1ccccc1-n1c(=O)on(C(=O)N(c2cc(F)cc(F)c2)C(C)C)c1=O [Compound 67] 0

Answer with the recorded Sugarbeets plant response rating for the compound listed here: COc1cccc(C)c1-n1c(=O)on(C(=O)N(c2ccc(F)cc2F)C(C)C)c1=O [Compound 74] 0

---

# System: bedstraw
# Assay method text: Test B pre/postemergence bedstraw
# Format: in vivo, Galium aparine
# Cond: Rate 250 g/ha, Postemergence; scale of 0 to 10 where 0 is no effect and 10 is complete control
Value type: Plant response rating, Bedstraw
Form rule: numeric answer, no unit written next to it.

Past entries and their recorded results:
Answer with the recorded Plant response rating, Bedstraw for the compound listed here: COC(Cn1c(=O)on(C(=O)N(c2ccc(F)cc2)C(C)C)c1=O)OC [Compound 317] 8

Answer with the recorded Plant response rating, Bedstraw for the compound listed here: CC(C)N(C(=O)n1oc(=O)n(CC(C)(C)C)c1=O)c1ccc(F)cc1F [Compound 277] 8

Answer with the recorded Plant response rating, Bedstraw for the compound listed here: CC(C)N(C(=O)n1oc(=O)n(C2CCOCC2)c1=O)c1ccc(F)cc1 [Compound 310] 7

***
Answer with the recorded Plant response rating, Bedstraw for the compound listed here: CC(C)N(C(=O)n1oc(=O)n(CCCCF)c1=O)c1ccc(F)cc1F [Compound 522] 9
